Reference source for all entries: patent US20170022201A1

Parameter IC50: see the listing below.
system.tested: PIK3C3 lipid kinase (Homo sapiens)
Sequence (Q8NEB9 whole entry): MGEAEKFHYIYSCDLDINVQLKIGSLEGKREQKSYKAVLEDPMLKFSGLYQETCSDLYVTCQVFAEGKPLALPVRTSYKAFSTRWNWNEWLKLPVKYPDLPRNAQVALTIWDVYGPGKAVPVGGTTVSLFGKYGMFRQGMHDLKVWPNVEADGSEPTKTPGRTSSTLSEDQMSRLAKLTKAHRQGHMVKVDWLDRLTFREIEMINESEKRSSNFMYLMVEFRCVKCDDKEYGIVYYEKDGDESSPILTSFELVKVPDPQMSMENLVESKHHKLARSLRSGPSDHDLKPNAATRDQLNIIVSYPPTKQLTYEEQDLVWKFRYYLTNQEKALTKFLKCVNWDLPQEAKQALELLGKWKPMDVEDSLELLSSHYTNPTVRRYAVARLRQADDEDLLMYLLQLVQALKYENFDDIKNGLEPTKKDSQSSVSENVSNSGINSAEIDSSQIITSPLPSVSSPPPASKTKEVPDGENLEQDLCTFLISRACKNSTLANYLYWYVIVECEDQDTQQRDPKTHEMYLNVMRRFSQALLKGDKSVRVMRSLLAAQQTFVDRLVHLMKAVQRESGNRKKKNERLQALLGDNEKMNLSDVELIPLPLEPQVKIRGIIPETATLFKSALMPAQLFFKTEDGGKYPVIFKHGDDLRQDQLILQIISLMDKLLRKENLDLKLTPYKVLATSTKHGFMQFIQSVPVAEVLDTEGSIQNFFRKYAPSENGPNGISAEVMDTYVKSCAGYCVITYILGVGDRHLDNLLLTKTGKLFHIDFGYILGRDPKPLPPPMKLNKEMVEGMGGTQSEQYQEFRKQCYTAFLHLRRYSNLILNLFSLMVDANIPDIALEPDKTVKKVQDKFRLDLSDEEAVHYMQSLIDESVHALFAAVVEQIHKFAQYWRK
assay: Biochemical Vps34 lipid kinase assay (ADP-Glo)
condition.details: serial dilution 10 μM to 0.3 nM; 20 μM ATP; pIC50 = -log IC50 (M)
Numeric answer only, unit M assumed.

Record excerpt, results attached:
O=C1CN2CCN(CC2)Cc2cccc(c2)Nc2cc(ccn2)-c2cnc(nc2)NCCCN1 [Compound 33] | 2.19e-07
CC1CN2CCN1Cc1cccc(c1)Nc1cc(ccn1)-c1cnc(nc1)N1CC(O)CC1CCNC(=O)C2 (stereo not drawn) [Compound 59] | 4.17e-07

# context switch: different compound, same IC50
# input So what's the measured IC50 for this one? COCC1C(=O)NCCCNc2ncc(cn2)-c2ccnc(c2)Nc2cccc(c2)CN2CCN1CC2 (single isomer, unassigned) [Compound 5]
# output 4.47e-07

----------
system.tested: EF2K (Homo sapiens)
Construct: host or cells: LN-229 glioblastoma cell lysate
Sequence (O00418 whole entry): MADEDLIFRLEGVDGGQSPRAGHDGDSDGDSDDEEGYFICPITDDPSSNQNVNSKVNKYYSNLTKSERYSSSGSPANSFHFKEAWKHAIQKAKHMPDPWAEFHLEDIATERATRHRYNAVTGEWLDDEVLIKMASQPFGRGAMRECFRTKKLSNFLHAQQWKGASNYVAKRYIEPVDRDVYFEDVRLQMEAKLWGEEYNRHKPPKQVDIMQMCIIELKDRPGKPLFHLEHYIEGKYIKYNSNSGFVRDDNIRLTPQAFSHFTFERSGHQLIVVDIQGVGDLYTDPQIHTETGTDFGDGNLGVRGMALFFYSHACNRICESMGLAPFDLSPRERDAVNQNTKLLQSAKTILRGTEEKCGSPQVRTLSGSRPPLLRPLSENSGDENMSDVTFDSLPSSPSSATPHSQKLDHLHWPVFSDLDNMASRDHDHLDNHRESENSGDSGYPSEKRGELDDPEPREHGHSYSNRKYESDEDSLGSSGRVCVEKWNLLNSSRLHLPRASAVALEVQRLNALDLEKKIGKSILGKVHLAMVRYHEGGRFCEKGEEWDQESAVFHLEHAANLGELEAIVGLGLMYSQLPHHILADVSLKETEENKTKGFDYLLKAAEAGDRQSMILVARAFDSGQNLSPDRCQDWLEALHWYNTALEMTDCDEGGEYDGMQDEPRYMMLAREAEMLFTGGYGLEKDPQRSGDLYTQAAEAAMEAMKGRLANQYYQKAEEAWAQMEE
assay: Biochemical EF2K lysate-based kinase assay (AlphaLISA p-eEF2 Thr56)
condition.details: LN-229 cell lysates, 10 mM ATP, pH 6.6; pIC50 = -log IC50 (M); read-out: eEF2K_C_alphalisa pIC50 (converted)
measured.metric: IC50 (M)
Numeric answer only, unit M assumed.

Record excerpt, results attached:
NC(=O)C1CCNC(=O)CN2CCN(CC2)Cc2cccc(c2)Nc2cc(ccn2)-c2cnc(nc2)N1 (stereo not shown) [Compound 123] | 4.47e-07
O=C1CN2CCN(CC2)Cc2cccc(c2)Nc2cc(ccn2)-c2cnc(nc2)N2CC(O)CC2CCN1 (stereo not shown) [Compound 55] | 8.51e-09
O=C1CN2CCN(CC2)Cc2cccc(c2)Nc2cc(ccn2)-c2cnc(nc2)CN(C(=O)C2CC2)CCN1 [Compound 131] | 6.17e-08
CC1CN2CCN1Cc1cccc(c1)Nc1cc(ccn1)-c1cnc(nc1)N1CC(O)CC1CCNC(=O)C2 (stereo not shown) [Compound 59] | 3.47e-08

# context switch: different compound, same IC50
# input Provide value of IC50 for this record tested with EF2K (Homo sapiens): O=C1CN2CC3CCC2CN3Cc2cccc(c2)Nc2cc(ccn2)-c2cnc(nc2)NCCCN1 (single isomer, unassigned) [Compound 25]
# output 2.34e-06
